system: Echinochloa crus-galli; assay: Herbicidal activity against Echinochloa crus-galli (barnyard grass) assessed as inhibition of root length at 1 ppm relative to untreated control; assay type: functional
Parameter: inhibition at 1 ppm (%)
Value expressed in %; do not type the unit.

Worked examples follow.
>  <Compound>
COc1cc(/C=C/c2ccccc2)oc(=O)c1 [DESMETHOXYYANGONIN]

>  <inhibition at 1 ppm [%]>
46.4

$$$$
>  <Compound>
COC1=CC(=O)O[C@@H](/C=C/c2ccc3c(c2)OCO3)C1 [METHYSTICIN]

>  <inhibition at 1 ppm [%]>
75.4

$$$$
>  <Compound>
COC1=CC(=O)O[C@@H](CCc2ccc3c(c2)OCO3)C1 [DIHYDROMETHYSTICIN]

>  <inhibition at 1 ppm [%]>
32.1

$$$$
>  <Compound>
COC1=CC(=O)O[C@@H](CCc2ccccc2)C1 [DIHYDROKAWAIN]

>  <inhibition at 1 ppm [%]>
53.1

$$$$

Fill blank: measured inhibition at 1 ppm of the compound COC1=CC(=O)O[C@@H](/C=C/c2ccccc2)C1 [KAVAIN] is ____.
39.7

Fill blank: measured inhibition at 1 ppm of the compound COc1ccc(/C=C/c2cc(OC)cc(=O)o2)cc1 [YANGONIN] is ____.
42.9

* * *

tested on: Lactuca sativa; assay: Herbicidal activity against Lactuca sativa cv. Great Lakes 366 (lettuce) assessed as inhibition of germination at 1 ppm relative to untreated control; format: functional
Parameter: inhibition at 1 ppm (%)
Value expressed in %; do not type the unit.

Worked examples follow.
>  <Smiles string>
COC1=CC(=O)O[C@@H](/C=C/c2ccccc2)C1

>  <System name>
Lactuca sativa

>  <Value observed>
51.9

$$$$
>  <Smiles string>
COc1cc(/C=C/c2ccccc2)oc(=O)c1

>  <System name>
Lactuca sativa

>  <Value observed>
48.1

$$$$
>  <Smiles string>
COC1=CC(=O)O[C@@H](/C=C/c2ccc3c(c2)OCO3)C1

>  <System name>
Lactuca sativa

>  <Value observed>
48.1

$$$$

Fill blank: measured inhibition at 1 ppm of the compound "COc1ccc(/C=C/c2cc(OC)cc(=O)o2)cc1" is ____.
44.4

* * *

The entries below are paired with their reported inhibition at 1 ppm.
test system: Echinochloa crus-galli; assay: Herbicidal activity against Echinochloa crus-galli (barnyard grass) assessed as inhibition of shoot length at 1 ppm relative to untreated control; format: functional
Value expressed in %; do not type the unit.

>  <Molecule>
COC1=CC(=O)O[C@@H](CCc2ccccc2)C1 [DIHYDROKAWAIN]

>  <Parameter>
inhibition at 1 ppm

>  <Value observed>
56.6

$$$$

Fill blank: measured inhibition at 1 ppm of the molecule COC1=CC(=O)O[C@@H](CCc2ccc3c(c2)OCO3)C1 [DIHYDROMETHYSTICIN] is ____.
48.6

Fill blank: measured inhibition at 1 ppm of the molecule "COc1cc(/C=C/c2ccccc2)oc(=O)c1" is ____.
31.7

Fill blank: measured inhibition at 1 ppm of the molecule "COC1=CC(=O)O[C@@H](/C=C/c2ccc3c(c2)OCO3)C1" is ____.
55

Fill blank: measured inhibition at 1 ppm of the molecule "COc1ccc(/C=C/c2cc(OC)cc(=O)o2)cc1" is ____.
53.1

* * *

The entries below are paired with their reported inhibition at 1 ppm.
test system: Lactuca sativa; assay: Herbicidal activity against Lactuca sativa cv. Great Lakes 366 (lettuce) assessed as inhibition of root length at 1 ppm relative to untreated control; type: functional
Value expressed in %; do not type the unit.

Fill blank: measured inhibition at 1 ppm of the molecule "COC1=CC(=O)O[C@@H](/C=C/c2ccccc2)C1" is ____.
59.9

Fill blank: measured inhibition at 1 ppm of the molecule "COc1cc(/C=C/c2ccccc2)oc(=O)c1" is ____.
50.3

Fill blank: measured inhibition at 1 ppm of the molecule "COC1=CC(=O)O[C@@H](/C=C/c2ccc3c(c2)OCO3)C1" is ____.
61.2

Fill blank: measured inhibition at 1 ppm of the molecule "COc1ccc(/C=C/c2cc(OC)cc(=O)o2)cc1" is ____.
36.1

* * *

tested on: Trichoderma viride; experiment: Antifungal activity against Hypocrea rufa assessed as growth inhibition at 50 ppm after 4 days relative to untreated control; assay type: functional; conditions: 96 h, read-out: GI
Parameter: inhibition of growth at 50 ppm (%)
Value expressed in %; do not type the unit.

Worked examples follow.
>  <Compound>
COC1=CC(=O)O[C@@H](CCc2ccc3c(c2)OCO3)C1 [DIHYDROMETHYSTICIN]

>  <Parameter>
inhibition of growth at 50 ppm

>  <Value observed>
0

$$$$
>  <Compound>
COC1=CC(=O)O[C@@H](CCc2ccccc2)C1 [DIHYDROKAWAIN]

>  <Parameter>
inhibition of growth at 50 ppm

>  <Value observed>
16.2

$$$$
>  <Compound>
COc1cc(/C=C/c2ccccc2)oc(=O)c1 [DESMETHOXYYANGONIN]

>  <Parameter>
inhibition of growth at 50 ppm

>  <Value observed>
0

$$$$
>  <Compound>
COC1=CC(=O)O[C@@H](/C=C/c2ccccc2)C1 [KAVAIN]

>  <Parameter>
inhibition of growth at 50 ppm

>  <Value observed>
0

$$$$
>  <Compound>
COc1ccc(/C=C/c2cc(OC)cc(=O)o2)cc1 [YANGONIN]

>  <Parameter>
inhibition of growth at 50 ppm

>  <Value observed>
0

$$$$

Turning now to a further compound:
Fill blank: measured inhibition of growth at 50 ppm of the compound COC1=CC(=O)O[C@@H](/C=C/c2ccc3c(c2)OCO3)C1 [METHYSTICIN] is ____.
0

* * *

system: Fusarium oxysporum; test: Antifungal activity against Fusarium oxysporum assessed as growth inhibition at 50 ppm after 4 days relative to untreated control; assay type: functional; details: 96 h, read-out: GI
Threshold check on inhibition of growth at 50 ppm: at or above 30% gives Fulfilled, strictly below gives Not fulfilled.

Below are worked cases with known answers.
>  <Compound>
COC1=CC(=O)O[C@@H](/C=C/c2ccccc2)C1

>  <Class>
Not fulfilled

$$$$
>  <Compound>
COC1=CC(=O)O[C@@H](/C=C/c2ccc3c(c2)OCO3)C1

>  <Class>
Fulfilled

$$$$
>  <Compound>
COc1cc(/C=C/c2ccccc2)oc(=O)c1

>  <Class>
Not fulfilled

$$$$
>  <Compound>
COc1ccc(/C=C/c2cc(OC)cc(=O)o2)cc1

>  <Class>
Fulfilled

$$$$
>  <Compound>
COC1=CC(=O)O[C@@H](CCc2ccc3c(c2)OCO3)C1 [DIHYDROMETHYSTICIN]

>  <Class>
Fulfilled

$$$$

We next turn to a different compound, shown below.
Hi, just wondering whether COC1=CC(=O)O[C@@H](CCc2ccccc2)C1 [DIHYDROKAWAIN] shows inhibition of growth at 50 ppm of 30% or higher.
Not fulfilled
